# method_description: Selectivity index, ratio of IC50 for cytotoxicity against bovine MDBK cells to IC50 for Trypanocidal activity against Trypanosoma evansi
measured_quantity: selectivity ratio
Could you keep your reply to the number by itself?

# input_smiles, result_number
measured = [
    ("COc1cccc(-c2ncc(-c3ccccc3)o2)c1OC", 0.68),
    ("COc1cccc(-c2cnc(-c3cccc(OC)c3OC)o2)c1", 1.4),
    ("COc1cccc(-c2ncc(-c3ccc4ccccc4c3)o2)c1OC", 0.6),
    ("Oc1ccccc1-c1nnc(-c2cccc(O)c2O)o1", 7.2),
    ("COc1cccc(-c2ncc(-c3ccc(OC)c(OC)c3OC)o2)c1OC", 1.7),
]

Q: Quick one: give measured selectivity ratio for `CC(=O)Oc1ccc(OC(C)=O)c(-c2cnc(-c3cc(OC(C)=O)ccc3OC(C)=O)o2)c1`
Ans: 0.67

---

# method_description: Selectivity index, ratio of IC50 for cytotoxicity against bovine MDBK cells to IC50 for Trypanocidal activity against Trypanosoma congolense
measured_quantity: selectivity ratio

Some molecules with recorded selectivity ratio:
# input_smiles, selectivity ratio
records = [
    ("COc1cccc(-c2ncc(-c3ccccc3)o2)c1OC", 10),
    ("COc1ccc(OC)c(-c2cnc(-c3cc(OC)ccc3OC)o2)c1", "> 100"),
    ("COc1ccc(OC)c(-c2cnc(-c3cccc(OC)c3OC)o2)c1", "> 188"),
    ("COc1cccc(-c2ncc(-c3ccccc3NC(C)=O)o2)c1OC", "> 7.8"),
    ("CCOc1ccccc1-c1cnc(-c2cccc(OC)c2OC)o1", "> 69"),
]

Next:
Q: Please report selectivity ratio for the following molecule: `COc1cccc(-c2ncc(-c3c(OC)cccc3OC)o2)c1OC`
Ans: 12

---

# method_description: Selectivity index, ratio of IC50 for cytotoxicity against bovine MDBK cells to IC50 for Trypanocidal activity against Trypanosoma brucei rhodesiense
So basically, if selectivity ratio comes in under 1 it's 1.0, and if it's 1 or more it's 0.0.

Before answering, review these 6 worked examples.
# input_smiles, class_label
measured = [
    ("COc1ccccc1-c1coc(-c2cccc(OC)c2OC)n1", 0.0),
    ("CC(=O)Oc1ccc(OC(C)=O)c(-c2ncc(-c3ccccc3OC(C)=O)o2)c1", 0.0),
    ("COc1cccc(-c2ncc(-c3ccccc3OCc3ccccc3)o2)c1OC", 0.0),
    ("COc1cccc(-c2cnc(-c3cccc(OC)c3OC)o2)c1OC", 0.0),
    ("COCOc1ccccc1-c1cnc(-c2cccc(OC)c2OC)o1", 0.0),
    ("COc1cccc(-c2ncc(-c3ccc(OC)c(OC)c3OC)o2)c1OC", 0.0),
]

Q: Check if selectivity ratio falls below 1 for `Oc1ccc(O)c(-c2ncc(-c3ccccc3O)o2)c1` .
Ans: 1.0

Q: Quick check: does `COc1ccccc1-c1nnc(-c2cccc(OC)c2OC)o1` have selectivity ratio under 1?
Ans: 0.0

Q: Given the entry `COc1cccc(-c2ncc(-c3ccc4ccccc4c3)o2)c1OC` , would its reported selectivity ratio be below 1?
Ans: 1.0

Q: Does the reported selectivity ratio of the following compound sit strictly below 1? `COc1cccc(-c2cnc(-c3cccc(OC)c3)o2)c1`
Ans: 0.0

---

# method_description: Selectivity index, ratio of IC50 for cytotoxicity against bovine MDBK cells to IC50 for Trypanocidal activity against Trypanosoma brucei brucei
# run_parameters: cattle
measured_quantity: selectivity ratio
Would you mind answering with just the numeric figure?

# input_smiles, selectivity ratio
records = [
    ("CC(=O)Oc1ccccc1-c1cnc(-c2cccc(OC(C)=O)c2OC(C)=O)o1", 1.2),
]

Q: Find the measured selectivity ratio of `COc1ccccc1-c1cnc(-c2cccc(OC)c2OC)s1` and report it.
Ans: 3.6

Q: State its selectivity ratio: `COc1cccc(-c2ncc(-c3ccccc3N)o2)c1OC`
Ans: 0.8

Q: Using the record for `COc1ccccc1-c1nnc(-c2cccc(OC)c2OC)o1` , state its measured selectivity ratio.
Ans: 2.4
